Tested on: Fibroblast
Experiment: Incucyte cell viability with human fibroblast; also: filed as whole numbers so only -1 and 0 and 1 occur
Assay type: toxicity, cell-based
Details: 12 h, 10 µM, compound concentration 10 uM, replicate number 1, timepoint 12 hours
measure: Growth Rate

[
  {
    "compound": "O=C(N[C@@H](C1CC1)C(F)(F)F)c1cc(-c2cnn3cc(-c4ccc(F)cc4)cnc23)cs1",
    "target-system": "Fibroblast",
    "measure": "Growth Rate",
    "recorded-value": 1
  },
  {
    "compound": "COc1ccccc1CN[C@H]1C2CCN(CC2)[C@H]1C(c1ccccc1)c1ccccc1 [CP-96345]",
    "target-system": "Fibroblast",
    "measure": "Growth Rate",
    "recorded-value": 1
  },
  {
    "compound": "O=S1(=O)c2cccc3cccc(c23)N1CCCN1CCN(c2ccc(F)cc2)CC1 [FANANSERIN]",
    "target-system": "Fibroblast",
    "measure": "Growth Rate",
    "recorded-value": 0
  },
  {
    "compound": "C[C@H](NC[C@H](O)CP(=O)(O)CC1CCCCC1)c1ccc(Cl)c(Cl)c1.Cl",
    "target-system": "Fibroblast",
    "measure": "Growth Rate",
    "recorded-value": 1
  },
  {
    "compound": "Cc1csc(NC(=O)c2cc(F)cc(Oc3cncnc3)c2)n1",
    "target-system": "Fibroblast",
    "measure": "Growth Rate",
    "recorded-value": 0
  }
]

---

Test system: U2OS
Assay: Incucyte cell viability with U2OS; also: filed as whole numbers so only -1 and 0 and 1 occur
Format: toxicity, cell-based
Conditions: human, 24 h, 10 µM, compound concentration 10 uM, replicate number 1, timepoint 24 hours
The reader will find reported Growth Rate values listed item by item below.
measure: Growth Rate

[
  {
    "compound": "O=C(O)Cn1c(C(=O)Nc2nc(-c3ccccc3Cl)cs2)cc2ccccc21",
    "target-system": "U2OS",
    "measure": "Growth Rate",
    "recorded-value": 1
  },
  {
    "compound": "CCCSc1nc(N[C@@H]2C[C@H]2c2ccc(F)c(F)c2)c2nnn([C@@H]3C[C@H](OCCO)[C@@H](O)[C@H]3O)c2n1",
    "target-system": "U2OS",
    "measure": "Growth Rate",
    "recorded-value": 0
  },
  {
    "compound": "CNC(=O)c1ccc(Nc2ncc(C(F)(F)F)c(NCc3nccnc3N(C)S(C)(=O)=O)n2)cc1",
    "target-system": "U2OS",
    "measure": "Growth Rate",
    "recorded-value": 0
  },
  {
    "compound": "CC(C)N(CCCNC(=O)Nc1ccc(C(C)(C)C)cc1)C[C@H]1O[C@@H](n2cc(Br)c3c(N)ncnc32)[C@H](O)[C@@H]1O",
    "target-system": "U2OS",
    "measure": "Growth Rate",
    "recorded-value": 1
  },
  {
    "compound": "Cc1cc(C)c(-n2ccn3nc(-c4cccnc4)cc23)cc1NC(=O)c1cc(C#N)cc(S(F)(F)(F)(F)F)c1",
    "target-system": "U2OS",
    "measure": "Growth Rate",
    "recorded-value": 0
  },
  {
    "compound": "Cl.Cl.Cl.c1ccc(N2CCN(Cc3nc4ccccc4[nH]3)CC2)nc1",
    "target-system": "U2OS",
    "measure": "Growth Rate",
    "recorded-value": 1
  },
  {
    "compound": "CC#CC(=O)N1CCC[C@H]1c1nc(-c2ccc(C(=O)Nc3ccccn3)cc2)c2c(N)nccn12",
    "target-system": "U2OS",
    "measure": "Growth Rate",
    "recorded-value": 1
  },
  {
    "compound": "O=c1[nH]c2ccccc2n1C1CCN(Cc2ccc(-c3[nH]c4cc5ncnc5cc4nc3-c3ccccc3)cc2)CC1",
    "target-system": "U2OS",
    "measure": "Growth Rate",
    "recorded-value": 0
  },
  {
    "compound": "CC(C)OC(=O)N1CCC(Oc2ncnc3c2cnn3-c2ccc(S(C)(=O)=O)cc2F)CC1",
    "target-system": "U2OS",
    "measure": "Growth Rate",
    "recorded-value": 1
  },
  {
    "compound": "Cl.O=C(O)c1cc(-c2ccc(C3CCNCC3)cc2)c2ccc(-c3ccc(C(F)(F)F)cc3)cc2c1",
    "target-system": "U2OS",
    "measure": "Growth Rate",
    "recorded-value": 0
  },
  {
    "compound": "COc1cc(C(=O)NS(=O)(=O)c2ccccc2C)ccc1Cc1cn(C)c2ccc(NC(=O)OC3CCCC3)cc12",
    "target-system": "U2OS",
    "measure": "Growth Rate",
    "recorded-value": 1
  },
  {
    "compound": "Cl.Clc1ccc(CCCOCCCN2CCCCC2)cc1 [PITOLISANT HYDROCHLORIDE]",
    "target-system": "U2OS",
    "measure": "Growth Rate",
    "recorded-value": 1
  },
  {
    "compound": "C[C@]1(O)C[C@@H](c2nc(-c3ccc4ccc(-c5ccccc5)nc4c3)c3c(N)nccn32)C1",
    "target-system": "U2OS",
    "measure": "Growth Rate",
    "recorded-value": 0
  },
  {
    "compound": "CC1=C(C(=O)Nc2cc3cn[nH]c3cc2F)C(c2ccc(C(F)(F)F)cc2)CC(=O)N1 (centres undefined)",
    "target-system": "U2OS",
    "measure": "Growth Rate",
    "recorded-value": 1
  },
  {
    "compound": "O=C(c1cc2c(cc1F)OC(c1ccc(F)cc1)(c1ccc(Cl)cc1Cl)O2)N1CCOCC1 (centres undefined)",
    "target-system": "U2OS",
    "measure": "Growth Rate",
    "recorded-value": 0
  },
  {
    "compound": "Cc1cccc(CN2CCN(C(c3ccccc3)c3ccc(Cl)cc3)CC2)c1.Cl.Cl (centres undefined)",
    "target-system": "U2OS",
    "measure": "Growth Rate",
    "recorded-value": 1
  },
  {
    "compound": "COc1ccc(S(=O)(=O)c2cc(OC)ccc2S(=O)(=O)c2ccc([C@H](C)NS(C)(=O)=O)cc2)cc1",
    "target-system": "U2OS",
    "measure": "Growth Rate",
    "recorded-value": 1
  },
  {
    "compound": "C#Cc1cccc(Nc2ncnc3cc(OCCOC)c(OCCOC)cc23)c1",
    "target-system": "U2OS",
    "measure": "Growth Rate",
    "recorded-value": 1
  },
  {
    "compound": "Cc1ccc2c(c1)c1c(n2CCc2ccc(C)nc2)CCN(C)C1 [LATREPIRDINE]",
    "target-system": "U2OS",
    "measure": "Growth Rate",
    "recorded-value": 1
  },
  {
    "compound": "COC(=O)C(Cc1ccc(OCCn2c(=O)sc3cc(C(=O)c4ccccc4)ccc32)cc1)C(=O)OC",
    "target-system": "U2OS",
    "measure": "Growth Rate",
    "recorded-value": 1
  },
  {
    "compound": "CO[C@@H](C)c1c(Nc2ccc([C@H](N(C)C(=O)C3CCS(=O)(=O)CC3)C(F)(F)F)cc2)cnc2cc(Cl)nn12",
    "target-system": "U2OS",
    "measure": "Growth Rate",
    "recorded-value": 1
  },
  {
    "compound": "COc1ccccc1CN[C@H]1C2CCN(CC2)[C@H]1C(c1ccccc1)c1ccccc1",
    "target-system": "U2OS",
    "measure": "Growth Rate",
    "recorded-value": 1
  },
  {
    "compound": "O=C(O)C1CN(Cc2ccc(-c3nc4cc(Cc5ccccc5F)ccc4s3)c(F)c2)C1",
    "target-system": "U2OS",
    "measure": "Growth Rate",
    "recorded-value": 1
  },
  {
    "compound": "CCNC(=O)c1cc2c(N3CCOC[C@@H]3C)ccnc2n1C",
    "target-system": "U2OS",
    "measure": "Growth Rate",
    "recorded-value": 0
  },
  {
    "compound": "CN1CCc2c(c3ccccc3n2Cc2ccc(C(=O)NO)cc2)C1",
    "target-system": "U2OS",
    "measure": "Growth Rate",
    "recorded-value": 1
  },
  {
    "compound": "CCOC(=O)c1cc2cc(-c3cc(C(=O)NCc4ccc(C(=O)O)cc4)nn3C)ccc2[nH]1",
    "target-system": "U2OS",
    "measure": "Growth Rate",
    "recorded-value": 1
  },
  {
    "compound": "C[C@H](NC[C@H](O)CP(=O)(O)CC1CCCCC1)c1ccc(Cl)c(Cl)c1.Cl",
    "target-system": "U2OS",
    "measure": "Growth Rate",
    "recorded-value": 1
  },
  {
    "compound": "CN(C)C(=O)/C(C#N)=C/c1ccc(-c2nc3cnc4c(ccn4C)c3n2C2CCCCC2)o1",
    "target-system": "U2OS",
    "measure": "Growth Rate",
    "recorded-value": 1
  },
  {
    "compound": "CC(C)CC(=O)Nc1[nH]nc2c1CN(C(=O)C1CCN(C)CC1)C2(C)C",
    "target-system": "U2OS",
    "measure": "Growth Rate",
    "recorded-value": 0
  },
  {
    "compound": "Cc1cc(-n2nc(Cc3cc(F)cc(C(F)(F)F)c3)nc2C)ccc1C(N)=O",
    "target-system": "U2OS",
    "measure": "Growth Rate",
    "recorded-value": 0
  },
  {
    "compound": "CC1CCN(CC[C@H]2CCCN2S(=O)(=O)c2cccc(O)c2)CC1.Cl",
    "target-system": "U2OS",
    "measure": "Growth Rate",
    "recorded-value": 1
  },
  {
    "compound": "CN1CCN(Cc2ccc(Nc3ncc(Cl)c(Nc4ccccc4S(=O)(=O)N(C)C)n3)cc2)CC1",
    "target-system": "U2OS",
    "measure": "Growth Rate",
    "recorded-value": 0
  },
  {
    "compound": "Cn1c(CNc2cccc(C(=O)NCc3ccccc3C(F)(F)F)c2)nnc1-c1ccncc1",
    "target-system": "U2OS",
    "measure": "Growth Rate",
    "recorded-value": 0
  },
  {
    "compound": "Nc1ncnc2c1ccn2[C@@H]1O[C@H]([C@H](O)c2ccccc2)[C@@H](O)[C@H]1O",
    "target-system": "U2OS",
    "measure": "Growth Rate",
    "recorded-value": 0
  }
]
